Data origin, for the record: PubChem BioAssay AID1963843

# Tested on: 616215-338-R-J1-PDC complex spheroid viability
# Protocol details: Anticancer human tumor 616215-338-R-J1-PDC patient-derived colon adenocarcinoma cell line growth inhibition [POLQ]
# Particulars: second compound 3.16 µM; first compound 0.1 µM; stronger effect = lower value
Measured parameter: viability, T/C (%)

Molecule	Measured parameter	Numeric readout
O=C(c1cc(Cc2n[nH]c(=O)c3ccccc23)ccc1F)N1CCN(C(=O)C2CC2)CC1 + COC1C(OC(N)=O)C(O)C(Oc2ccc3c(O)c(NC(=O)c4ccc(O)c(CC=C(C)C)c4)c(=O)oc3c2C)OC1(C)C	viability, T/C	95
CC[C@@]1(O)C(=O)OCc2c1cc1n(c2=O)Cc2cc3c(CN(C)C)c(O)ccc3nc2-1 + COC1C(OC(N)=O)C(O)C(Oc2ccc3c(O)c(NC(=O)c4ccc(O)c(CC=C(C)C)c4)c(=O)oc3c2C)OC1(C)C	viability, T/C	64.9
Cn1ncnc1[C@H]1c2n[nH]c(=O)c3cc(F)cc(c23)N[C@@H]1c1ccc(F)cc1 + Nc1ccc(C#CCN(C(=O)Cc2ncc(C(F)(F)F)cc2C(F)(F)F)c2ccc(F)cc2)nn1	viability, T/C	95.7
O=c1[nH]cc(F)c(=O)[nH]1 + Nc1ccc(C#CCN(C(=O)Cc2ncc(C(F)(F)F)cc2C(F)(F)F)c2ccc(F)cc2)nn1	viability, T/C	90.5
O=c1[nH]cc(F)c(=O)[nH]1 + COC1C(OC(N)=O)C(O)C(Oc2ccc3c(O)c(NC(=O)c4ccc(O)c(CC=C(C)C)c4)c(=O)oc3c2C)OC1(C)C	viability, T/C	107
CC1COCCN1c1cc(-c2ccnn2C)c2ccnc(-c3ccn[nH]3)c2n1 (stereo not drawn) + Nc1ccc(C#CCN(C(=O)Cc2ncc(C(F)(F)F)cc2C(F)(F)F)c2ccc(F)cc2)nn1	viability, T/C	59.5
COc1cc2cc(C(=O)CCC(=O)O)sc2cc1OC + Cc1cccc(N(C)C(=O)C2C(O)CCN2c2nc(C)cc(C(F)(F)F)c2C#N)c1	viability, T/C	102
CCc1c2c(nc3ccc(O)cc13)-c1cc3c(c(=O)n1C2)COC(=O)[C@]3(O)CC + COC1C(OC(N)=O)C(O)C(Oc2ccc3c(O)c(NC(=O)c4ccc(O)c(CC=C(C)C)c4)c(=O)oc3c2C)OC1(C)C	viability, T/C	35.1
CCc1cc2c(N3CCc4c(cc(Cn5ccnc5)cc4-c4cn(C)nc4C(F)(F)F)C3=O)cc(C)nc2c(OC)n1 + Cc1cccc(N(C)C(=O)C2C(O)CCN2c2nc(C)cc(C(F)(F)F)c2C#N)c1	viability, T/C	102
CCc1c2c(nc3ccc(O)cc13)-c1cc3c(c(=O)n1C2)COC(=O)[C@]3(O)CC + Nc1ccc(C#CCN(C(=O)Cc2ncc(C(F)(F)F)cc2C(F)(F)F)c2ccc(F)cc2)nn1	viability, T/C	28.6
Nc1ccn(C2OC(CO)C(O)C2(F)F)c(=O)n1 (stereo not drawn) + COC1C(OC(N)=O)C(O)C(Oc2ccc3c(O)c(NC(=O)c4ccc(O)c(CC=C(C)C)c4)c(=O)oc3c2C)OC1(C)C	viability, T/C	39.5
C=CCn1c(=O)c2cnc(Nc3ccc(N4CCN(C)CC4)cc3)nc2n1-c1cccc(C(C)(C)O)n1 + COC1C(OC(N)=O)C(O)C(Oc2ccc3c(O)c(NC(=O)c4ccc(O)c(CC=C(C)C)c4)c(=O)oc3c2C)OC1(C)C	viability, T/C	98.2
COc1cccc2c1C(=O)c1c(O)c3c(c(O)c1C2=O)CC(O)(C(=O)CO)CC3OC1CC(N)C(O)C(C)O1 (stereo not drawn) + Cc1cccc(N(C)C(=O)C2C(O)CCN2c2nc(C)cc(C(F)(F)F)c2C#N)c1	viability, T/C	79.9
CCCS(=O)(=O)Nc1ccc(F)c(C(=O)c2c[nH]c3ncc(-c4ccc(Cl)cc4)cc23)c1F + Cc1cccc(N(C)C(=O)C2C(O)CCN2c2nc(C)cc(C(F)(F)F)c2C#N)c1	viability, T/C	98.6
CNCc1ccc(-c2[nH]c3cc(F)cc4c3c2CCNC4=O)cc1 + COC1C(OC(N)=O)C(O)C(Oc2ccc3c(O)c(NC(=O)c4ccc(O)c(CC=C(C)C)c4)c(=O)oc3c2C)OC1(C)C	viability, T/C	101
O=C(c1cc(Cc2n[nH]c(=O)c3ccccc23)ccc1F)N1CCN(C(=O)C2CC2)CC1 + Nc1ccc(C#CCN(C(=O)Cc2ncc(C(F)(F)F)cc2C(F)(F)F)c2ccc(F)cc2)nn1	viability, T/C	107
CC1COCCN1c1cc(-c2ccnn2C)c2ccnc(-c3ccn[nH]3)c2n1 (stereo not drawn) + Cc1cccc(N(C)C(=O)C2C(O)CCN2c2nc(C)cc(C(F)(F)F)c2C#N)c1	viability, T/C	95.2
CC1COCCN1c1cc(C2(S(C)(=N)=O)CC2)nc(-c2ccnc3[nH]ccc23)n1 (stereo not drawn) + COC1C(OC(N)=O)C(O)C(Oc2ccc3c(O)c(NC(=O)c4ccc(O)c(CC=C(C)C)c4)c(=O)oc3c2C)OC1(C)C	viability, T/C	100

====

# Test system: 616215-338-R-J1-PDC complex spheroid viability
# Protocol details: Anticancer human tumor 616215-338-R-J1-PDC cell line growth inhibition [POLQ];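 note: spheroids exposed to compounds for one week before readout; percent viability relative to DMSO vehicle wells taken as 100%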
# Particulars: second compound 1 µM; first compound 1 µM; stronger effect = lower value
We begin with a simple list: items and their reported viability, T/C.

Compound	viability, T/C
Nc1ccn(C2OC(CO)C(O)C2(F)F)c(=O)n1 (stereo unspecified) + COC1C(OC(N)=O)C(O)C(Oc2ccc3c(O)c(NC(=O)c4ccc(O)c(CC=C(C)C)c4)c(=O)oc3c2C)OC1(C)C	23.2%
COc1cc2cc(C(=O)CCC(=O)O)sc2cc1OC + Nc1ccc(C#CCN(C(=O)Cc2ncc(C(F)(F)F)cc2C(F)(F)F)c2ccc(F)cc2)nn1	113%
COc1cccc2c1C(=O)c1c(O)c3c(c(O)c1C2=O)CC(O)(C(=O)CO)CC3OC1CC(N)C(O)C(C)O1 (stereo unspecified) + Nc1ccc(C#CCN(C(=O)Cc2ncc(C(F)(F)F)cc2C(F)(F)F)c2ccc(F)cc2)nn1	23.1%
CCc1cc2c(N3CCc4c(cc(Cn5ccnc5)cc4-c4cn(C)nc4C(F)(F)F)C3=O)cc(C)nc2c(OC)n1 + Cc1cccc(N(C)C(=O)C2C(O)CCN2c2nc(C)cc(C(F)(F)F)c2C#N)c1	66.1%
O=c1[nH]cc(F)c(=O)[nH]1 + COC1C(OC(N)=O)C(O)C(Oc2ccc3c(O)c(NC(=O)c4ccc(O)c(CC=C(C)C)c4)c(=O)oc3c2C)OC1(C)C	58.1%
CNCc1ccc(-c2[nH]c3cc(F)cc4c3c2CCNC4=O)cc1 + Cc1cccc(N(C)C(=O)C2C(O)CCN2c2nc(C)cc(C(F)(F)F)c2C#N)c1	103%
CNCc1ccc(-c2[nH]c3cc(F)cc4c3c2CCNC4=O)cc1 + Nc1ccc(C#CCN(C(=O)Cc2ncc(C(F)(F)F)cc2C(F)(F)F)c2ccc(F)cc2)nn1	105%
COc1cc(C2c3cc4c(cc3C(OC3OC5COC(C)OC5C(O)C3O)C3COC(=O)C23)OCO4)cc(OC)c1O (stereo unspecified) + Cc1cccc(N(C)C(=O)C2C(O)CCN2c2nc(C)cc(C(F)(F)F)c2C#N)c1	81.4%
CCc1cc2c(N3CCc4c(cc(Cn5ccnc5)cc4-c4cn(C)nc4C(F)(F)F)C3=O)ccnc2c(OC)n1 + COC1C(OC(N)=O)C(O)C(Oc2ccc3c(O)c(NC(=O)c4ccc(O)c(CC=C(C)C)c4)c(=O)oc3c2C)OC1(C)C	100%
O=C(c1cc(Cc2n[nH]c(=O)c3ccccc23)ccc1F)N1CCN(C(=O)C2CC2)CC1 + Nc1ccc(C#CCN(C(=O)Cc2ncc(C(F)(F)F)cc2C(F)(F)F)c2ccc(F)cc2)nn1	103%
C=CC(=O)N1CCN(c2nc(=O)n(-c3c(C)ccnc3C(C)C)c3nc(-c4c(O)cccc4F)c(F)cc23)C(C)C1 (stereo unspecified) + COC1C(OC(N)=O)C(O)C(Oc2ccc3c(O)c(NC(=O)c4ccc(O)c(CC=C(C)C)c4)c(=O)oc3c2C)OC1(C)C	101%
CC(C)n1c(=O)n(C)c2cnc3cc(F)c(-c4ccc(OCCCN5CCCCC5)nc4)cc3c21 + Cc1cccc(N(C)C(=O)C2C(O)CCN2c2nc(C)cc(C(F)(F)F)c2C#N)c1	117%
CCc1c2c(nc3ccc(O)cc13)-c1cc3c(c(=O)n1C2)COC(=O)[C@]3(O)CC + COC1C(OC(N)=O)C(O)C(Oc2ccc3c(O)c(NC(=O)c4ccc(O)c(CC=C(C)C)c4)c(=O)oc3c2C)OC1(C)C	19.6%
COc1cc2cc(C(=O)CCC(=O)O)sc2cc1OC + Cc1cccc(N(C)C(=O)C2C(O)CCN2c2nc(C)cc(C(F)(F)F)c2C#N)c1	107%
CC1COCCN1c1cc(C2(O)CC3CCC(C2)O3)c2cnn(-c3ccn[nH]3)c2n1 (stereo unspecified) + COC1C(OC(N)=O)C(O)C(Oc2ccc3c(O)c(NC(=O)c4ccc(O)c(CC=C(C)C)c4)c(=O)oc3c2C)OC1(C)C	57.1%
CNCc1ccc(-c2[nH]c3cc(F)cc4c3c2CCNC4=O)cc1 + COC1C(OC(N)=O)C(O)C(Oc2ccc3c(O)c(NC(=O)c4ccc(O)c(CC=C(C)C)c4)c(=O)oc3c2C)OC1(C)C	102%
C#Cc1c(F)ccc2cc(O)cc(-c3ncc4c(N5CC6CCC(C5)N6)nc(OCC56CCCN5CC(F)C6)nc4c3F)c12 (stereo unspecified) + Nc1ccc(C#CCN(C(=O)Cc2ncc(C(F)(F)F)cc2C(F)(F)F)c2ccc(F)cc2)nn1	81.9%
CCc1cc2c(N3CCc4c(cc(Cn5ccnc5)cc4-c4cn(C)nc4C(F)(F)F)C3=O)cc(C)nc2c(OC)n1 + Nc1ccc(C#CCN(C(=O)Cc2ncc(C(F)(F)F)cc2C(F)(F)F)c2ccc(F)cc2)nn1	57%
Nc1ccn(C2OC(CO)C(O)C2(F)F)c(=O)n1 (stereo unspecified) + Nc1ccc(C#CCN(C(=O)Cc2ncc(C(F)(F)F)cc2C(F)(F)F)c2ccc(F)cc2)nn1	12.6%
CCc1c2c(nc3ccc(O)cc13)-c1cc3c(c(=O)n1C2)COC(=O)[C@]3(O)CC + Nc1ccc(C#CCN(C(=O)Cc2ncc(C(F)(F)F)cc2C(F)(F)F)c2ccc(F)cc2)nn1	10.2%
CCc1c2c(nc3ccc(O)cc13)-c1cc3c(c(=O)n1C2)COC(=O)[C@]3(O)CC + Cc1cccc(N(C)C(=O)C2C(O)CCN2c2nc(C)cc(C(F)(F)F)c2C#N)c1	18.7%
